Biological target: constitutive proteasome β5c unit (Homo sapiens, UniProt P28074)
Assay: Caliper-based proteasome enzymatic activity assay, β5c
Conditions: human recombinant constitutive proteasome 0.3 nM, FAM-labeled peptide substrate 1 μM, rt 3 h; read-out: β5c subunit IC50
Attribute: log10(IC50)
observation type: log10(IC50) (log10 of the value in nM)

# compound, log10(IC50)
records = [
    ("CC(C)(C=C(C#N)C(=O)N1CCC[C@H](OC(=O)N[C@@H](Cc2coc3ccccc23)B(O)O)C1)N1CCC(F)(F)C1 [Example 73]", 1.74),
    ("CC(C)(C=C(C#N)C(=O)N1C2CCC1(COC(=O)N[C@@H](Cc1ccccc1)B(O)O)CC2)N1CCOC2(CC2)C1 [Example 116]", 2.88),
    ("Cc1ccc(C[C@H](NC(=O)OC[C@H]2CCN(C(=O)C(C#N)=CC(C)(C)C)C2)B(O)O)cc1 [Example 46]", 3.23),
    ("CC(C)(C=C(C#N)C(=O)N1CCO[C@@H](CC(=O)N[C@@H](Cc2ccccc2)B(O)O)C1)N1CCC(F)(F)C1 [Example 61]", 2.27),
    ("CC(C)C=C(C#N)C(=O)N1CCC[C@@H]1COC[C@H](NC(=O)c1cc(Cl)ccc1Cl)C(=O)N[C@@H](Cc1ccccc1)[B-]12OC(=O)C[N+]1(C)CC(=O)O2 (some centres unmarked) [Example 19]", 1.19),
    ("CC(C)(C=C(C#N)C(=O)N1CC[C@H](COC(=O)N[C@@H](Cc2ccccc2)B(O)O)C1)N1CCC(F)(F)C1 [Example 95]", 3.42),
    ("CC(C)(C=C(C#N)C(=O)N1C2CCC1(COC(=O)N[C@@H](Cc1ccccc1)B(O)O)CC2)N1CCOCC1 [Example 81]", 3.35),
    ("CC(C)(C=C(C#N)C(=O)N1CCC[C@H](OC(=O)N[C@@H](Cc2ccc(F)cc2)B(O)O)C1)N1CCC(F)(F)C1 [Example 78]", 2.70),
    ("CC(C)C=C(C#N)C(=O)N1CCC[C@@H]1COC[C@H](NCC(F)(F)F)C(=O)N[C@@H](Cc1coc2ccccc12)B(O)O [Example 31]", 1.60),
    ("C[C@H]1CN(C(C)(C)C=C(C#N)C(=O)N2CCCC[C@@H](OC(=O)N[C@@H](Cc3ccccc3)B(O)O)C2)CCO1 [Example 130]", 3.31),
    ("CC(C)(C=C(C#N)C(=O)N1CCC[C@H](OC(=O)N[C@@H](Cc2ccccc2)B(O)O)C1)N1CCC(F)(F)C1 [Example 60]", 2.67),
    ("CC(C)(C=C(C#N)C(=O)N1CCC[C@H](NC(=O)N[C@@H](Cc2ccccc2)B(O)O)C1)N1CCC(F)(F)C1 [Example 112]", 3.35),
    ("CC(C)(C)C=C(C#N)C(=O)N1CCC[C@@H]1COC[C@H](NCC(F)(F)F)C(=O)N[C@@H](Cc1ccccc1)B(O)O [Example 24]", 2.22),
]

###

Target: constitutive proteasome β5c unit (Homo sapiens)
Assay: Caliper-based proteasome enzymatic activity assay, β5c
Settings: human recombinant constitutive proteasome 0.3 nM, FAM-labeled peptide substrate 1 μM, rt 3 h; read-out: β5c subunit IC50
Attribute: IC50
observation type: IC50

# molecule, test value
rows = [
    ("CC(C)(C=C(C#N)C(=O)N1CCC[C@@](C)(OC(=O)N[C@@H](Cc2ccccc2)B(O)O)C1)N1CCC(F)(F)C1 (single isomer, unassigned)", "> 5 µM"),
    ("CC1(OC(=O)N[C@@H](Cc2ccc(F)cc2)B(O)O)CCCN(C(=O)C(C#N)=CC(C)(C)N2CCC(F)(F)C2)C1 (mixture of isomers)", "> 5 µM"),
    ("CC(C)C=C(C#N)C(=O)N1CCC[C@@H]1CNC(=O)N[C@@H](Cc1ccccc1)B(O)O", "> 5 µM"),
    ("C=CC(=O)N1C2CCC1(COC(=O)N[C@@H](Cc1ccc(F)cc1)B(O)O)CC2", "4.03 µM"),
    ("Cc1ccc(C[C@H](NC(=O)NC[C@@H]2CCCN2C(=O)C(C#N)=CC(C)(C)C)B(O)O)cc1", "> 5 µM"),
    ("C=CC(=O)N1CCC[C@H](OC(=O)N[C@@H](Cc2ccccc2)B(O)O)C1", "> 5 µM"),
]

###

Molecular target: immunoproteasome LMP7/B5i subunit (Homo sapiens, UniProt P28062)
Assay: Caliper-based proteasome enzymatic activity assay, LMP7
Type: biochemical
Conditions: human recombinant immunoproteasome 0.3 nM, FAM-labeled peptide substrate 1 μM, rt 3 h; read-out: LMP7 subunit IC50
So basically: is IC50 under 2 nM? Then Yes. Not under? Then No.

# compound, label
data = [
    ("CN(C[C@H]1CCCCN1C(=O)C(C#N)=CC(C)(C)N1CCC(F)(F)C1)C(=O)N[C@@H](Cc1ccccc1)B(O)O", "No"),
    ("C[C@@H]1CN(C(C)(C)C=C(C#N)C(=O)N2C3CCC2(COC(=O)N[C@@H](Cc2ccccc2)B(O)O)CC3)CCO1", "Yes"),
    ("CC(C)C=C(C#N)C(=O)NCCCC[C@H](NC(=O)[C@@H](NC(=O)C(C)C)[C@@H](C)O)C(=O)N[C@@H](CC(C)C)B(O)O", "No"),
    ("CC(C)C=C(C#N)C(=O)NCCCC[C@H](NC(=O)c1cccc(O)n1)C(=O)N[C@@H](Cc1ccccc1)B(O)O", "No"),
    ("C[C@@H]1CN(C(C)(C)C=C(C#N)C(=O)N2CCCC[C@@H](OC(=O)N[C@@H](Cc3ccccc3)B(O)O)C2)C[C@@H](C)O1", "No"),
    ("C=CC(=O)N1C[C@@H](F)[C@@H](OC(=O)N[C@@H](Cc2ccccc2)B(O)O)C1", "No"),
    ("CC(C)C=C(C#N)C(=O)N1CCCC[C@H]1CNC(=O)N[C@@H](Cc1ccccc1)B(O)O", "No"),
    ("CC(C)(C=C(C#N)C(=O)N1CCCC[C@@H](OC(=O)N[C@@H](Cc2ccccc2)B(O)O)C1)N1CCOC2(CC2)C1", "Yes"),
    ("C=C(F)C(=O)N1CCC[C@H](OC(=O)N[C@@H](Cc2ccc(F)cc2)B(O)O)C1", "No"),
    ("CC(C)(C=C(C#N)C(=O)N1C[C@@H](F)[C@H](OC(=O)N[C@@H](Cc2ccccc2)B(O)O)C1)N1CCC(F)(F)C1", "No"),
    ("CC(C)(C=C(C#N)C(=O)N1CCCC[C@@H](OC(=O)N[C@@H](Cc2ccccc2)B(O)O)C1)N1CCC(F)(F)C1 (single isomer, unassigned)", "Yes"),
    ("CC(C)(C=C(C#N)C(=O)N1CCCC[C@@H](OC(=O)N[C@@H](Cc2ccccc2)B(O)O)C1)N1CC2CC(C1)O2", "Yes"),
    ("C=CC(=O)N(C)c1cccc(C[C@H](NC(=O)c2cc(Cl)ccc2Cl)C(=O)N[C@@H](Cc2ccccc2)B(O)O)c1", "No"),
    ("CC(C)C=C(C#N)C(=O)NCCCC[C@H](NC(=O)c1cccc(O)n1)C(=O)N[C@@H](CC(C)C)B(O)O", "Yes"),
    ("CC(C)(C=C(C#N)C(=O)N1CCC[C@H](CC(=O)N[C@@H](Cc2ccccc2)B(O)O)C1)N1CCC(F)(F)C1", "No"),
    ("CC(C)C=C(C#N)C(=O)N(C)c1cccc(C[C@H](NC(=O)c2cnccn2)C(=O)N[C@@H](Cc2ccccc2)B(O)O)c1", "No"),
    ("COC(=O)N1CCN(C(C)(C)C=C(C#N)C(=O)N2CCC[C@H](OC(=O)N[C@@H](CC3=CCCC3)B(O)O)C2)CC1", "No"),
    ("CC(C)C=C(C#N)C(=O)N(C)c1cccc(C[C@H](NC(=O)c2cc(Cl)ccc2Cl)C(=O)N[C@@H](Cc2ccccc2)B(O)O)c1", "No"),
]

###

Attribute: IC50
Molecular target: constitutive proteasome β5c unit (Homo sapiens, UniProt P28074)
Assay: Caliper-based proteasome enzymatic activity assay, β5c
Conditions: human recombinant constitutive proteasome 0.3 nM, FAM-labeled peptide substrate 1 μM, rt 3 h; read-out: β5c subunit IC50

# compound, IC50
measured = [
    ("CC(C)(C=C(C#N)C(=O)N1CCC[C@H](OC(=O)N[C@@H](CC2=CCCC2)B(O)O)C1)N1CCC(F)(F)C1 [Example 117]", "> 5 µM"),
    ("C=CC(=O)N1C[C@H](OC(=O)N[C@@H](Cc2ccccc2)B(O)O)[C@@H](F)C1 [Example 110]", "2.84 µM"),
    ("CC#CC(=O)N(C)c1cccc(C[C@H](NC(=O)c2cc(Cl)ccc2Cl)C(=O)N[C@@H](Cc2ccccc2)B(O)O)c1 [Example 18]", "0.01 µM"),
    ("Cc1ccc(C[C@H](NC(=O)NC[C@H]2CCCN2C(=O)C(C#N)=CC(C)(C)C)B(O)O)cc1 [Example 43]", "> 5 µM"),
    ("CC(C)(C=C(C#N)C(=O)N1CCCC[C@H](OC(=O)N[C@@H](Cc2ccccc2)B(O)O)C1)N1CCC(F)(F)C1 [Example 106]", "2.66 µM"),
    ("C=CC(=O)N1CCCC[C@H]1CNC(=O)N[C@@H](Cc1ccccc1)B(O)O [Example 38]", "> 5 µM"),
    ("CC(C)(C=C(C#N)C(=O)N1CCC[C@H](OC(=O)N[C@@H](Cc2ccccc2)B(O)O)C1)N1CCN(C2COC2)CC1 [Example 79]", "2.78 µM"),
    ("CC(C)(C=C(C#N)C(=O)N1CCC[C@H](COC(=O)N[C@@H](Cc2ccccc2)B(O)O)C1)N1CCC(F)(F)C1 [Example 53]", "> 5 µM"),
    ("CC(C)(C)/C=C(\\C#N)C(=O)N1CC[C@H](OC(=O)N[C@@H](Cc2ccccc2)B(O)O)C1 [Example 87]", "0.574 µM"),
    ("CC(C)(C=C(C#N)C(=O)N1CCC[C@@H]1CNC(=O)N[C@@H](Cc1coc2ccccc12)B(O)O)N1CCC(F)(F)CC1 [Example 49]", "1.81 µM"),
    ("CC(C)(C=C(C#N)C(=O)N1CCCC[C@@H](OC(=O)N[C@@H](Cc2ccc(F)cc2)B(O)O)C1)N1CCOCC1 [Example 137]", "2.08 µM"),
    ("CC(=O)N[C@@H](CCCCNC(=O)C(C#N)=CC(C)C)C(=O)N[C@@H](Cc1ccccc1)B(O)O [Example 11]", "0.004 µM"),
    ("C=CC(=O)N1C[C@@H](F)[C@@H](OC(=O)N[C@@H](Cc2ccccc2)B(O)O)C1 [Example 124]", "> 5 µM"),
    ("C[C@@H]1CN(C(C)(C)C=C(C#N)C(=O)N2CCCC[C@@H](OC(=O)N[C@@H](Cc3ccccc3)B(O)O)C2)CCO1 [Example 131]", "1.48 µM"),
    ("CC(C)(C=C(C#N)C(=O)N1C2CCC1(COC(=O)N[C@@H](Cc1ccccc1)B(O)O)CC2)N1CCC(F)(F)C1 [Example 57]", "1.62 µM"),
    ("C=CC(=O)N1C[C@H](F)[C@H](OC(=O)N[C@@H](Cc2ccccc2)B(O)O)C1 [Example 115]", "0.207 µM"),
    ("CC(C)C=C(C#N)C(=O)N1CCC(CCCC(=O)N[C@@H](Cc2ccccc2)B(O)O)CC1 [Example 29]", "0.964 µM"),
    ("C=CC(=O)N(C)c1cccc(C[C@H](NC(=O)c2cc(Cl)ccc2Cl)C(=O)N[C@@H](Cc2ccccc2)B(O)O)c1 [Example 15]", "0.005 µM"),
    ("Cc1ccc(C[C@H](NC(=O)OC[C@H]2CCCN(C(=O)C(C#N)=CC(C)(C)C)C2)B(O)O)cc1 [Example 44]", "2.85 µM"),
    ("CC(C)(C=C(C#N)C(=O)N1CCCC[C@@H](OC(=O)N[C@@H](Cc2ccccc2)B(O)O)C1)N1CCOCC1 (single isomer, unassigned) [Example 103]", "3.18 µM"),
]
